The reported numbers originate from the supplement of paper PMC10567573.

Recorded protein stability index values for a group of sequences are listed next.
experiment-notes: protein stability index of a GFP-peptide fusion (GPS, HEK-293T) (PSI 1-6); higher = more stable;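 also: 24-mer peptide tiles fused after GFP, lentivirally expressed, FACS-sorted into six equal bins by GFP/DsRed ratio, decoded by Illumina sequencing, PSI is the read-weighted mean bin number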
condition-info: treatment: DMSO; c terminus: a fixed tail appended
// return a plain number; no unit text

// below: answered sequences
                           seq_string  measured_number
0   ANFSLGSINQRLNKRERSKLKNLR [RNF180]             2.91
1   LWLTASQPCSIVDVEFLPVYHPSP [LPCAT4]             3.02
2    SFMDGYKQKNAYIGTQGPLENTYR [PTPN9]             3.04
3    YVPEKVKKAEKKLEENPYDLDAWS [CSTF3]             3.06
4  ANLAASGGYAIAVVLLQGAELLLA [TSPAN10]             2.97

protein stability index measured on PYKKPYMETSPSEEDSFYRSSYPQ [TBX5] = 3.91

###

experiment-notes: protein stability index of a GFP-peptide fusion (GPS, HEK-293T) (PSI 1-6); higher = more stable
condition-info: treatment: MLN4924 1 uM, 8 h; c terminus: a fixed tail appended
property-measured: protein stability index
// return a plain number; no unit text

>>> df
                         seq_string        property_measured  measured_number
0   ELQNQLAACTRALESSEELLETAN [FSD1]  protein stability index             4.37
1  KEVMLFGHGTRKRVPLGRLELLEE [RSAD1]  protein stability index             3.59
2  KVKKSGSRVMFLLVDKETDKRHVE [PDZK1]  protein stability index              3.4
3  HCASPPPSSNNKELFYRVNYIGTK [NSDHL]  protein stability index             3.31

protein stability index measured on VTNPHSSQWKDPALSQLICFCRES [GADD45A] = 2.67

protein stability index measured on ADPLQLNKALSIILHLICLLEKVP [FEM1C] = 3.16

protein stability index measured on PGASTEEVKRAFFSKSKELHPDRD [DNAJC4] = 5.18

protein stability index measured on AITRVSDRFSGETSAAALSPMSAA [SMTNL2] = 3.63

protein stability index measured on CSPALKRSHSDSLDHDIFQLIDPD [CDC25A] = 3.72

protein stability index measured on AKGIPQRAPPKRKRKRVKQRINTY [PCMTD1] = 4.58

protein stability index measured on TGEAGEELDLRLRLAQPSSPEVLT [RTN2] = 5.01

protein stability index measured on LMDGGDLPSVTDIRRPRLYLLQWL [PLK2] = 2.5

protein stability index measured on KCKPSLPAEAEGAAQELENQMKER [TMEM120A] = 5.49

###

experiment-notes: protein stability index of a GFP-peptide fusion (GPS, HEK-293T) (PSI 1-6); higher = more stable
condition-info: treatment: MLN4924 1 uM, 8 h; c terminus: a fixed tail appended
Recorded protein stability index values for a group of sequences are listed next.

protein stability index measured on IRRFLSAFHEPQVGLIQAAQQLLC [DFFB] = 2.14

protein stability index measured on NMTQDEFKSLFGSIGDIESCKLVR [ELAVL3] = 3.33
